system: Saccharomyces cerevisiae; assay: transcriptional activation domain activity (GFP:mCherry ratio, weighted mean of sorted bins, harmonized to initial dataset scale) (arbitrary fluorescence ratio units); higher = stronger transcriptional activation; conditions: beta-estradiol 1 µM; induction time 4 h
Readout Kind: transcriptional activation domain activity

1. DTSSFFLRFFHFPFLQLFLLQCLISPCLYVRTCPISLLLLWWCFYSVFFCVRG | 50300
2. LYLLIFFPVLLWRYLCIGLDSVLCCHIGFHFPYFMCYFFAIMSVSRSFFYSCI | 50700
3. FLNNAPDEDPNLNNQWSICDDFSEGRQVNDAFVGGSNIPHTLKGLQKSLRFMN | 50800
4. MMDCRRRTGFQAFFLSFLSLVLSSFFLLCLFNPYVCVFFLIFHYRLTFSVIWS | 49100
5. NVLLLGLLGWLIRLVHNSEPTLVLKKLCSTLVTYFTRQSFRWRRCIKHLVCAF | 39900

###

Each entry below carries its recorded transcriptional activation domain activity.
system: Saccharomyces cerevisiae; assay: transcriptional activation domain activity (GFP:mCherry ratio, weighted mean of sorted bins, harmonized to initial dataset scale) (arbitrary fluorescence ratio units); higher = stronger transcriptional activation; details: beta-estradiol 1 µM; induction time 4 h
Readout Kind: transcriptional activation domain activity

1) EASSDGEGAASASDASGDRELVKAKAKKKKKAAGEEGDKPKKKKKSSPKKAKE | 27100
2) YGADDFFFPPEGCDNNMLYPQTATSWNVLPPQAMQPAPTYVGRPYTPNYRSTP | 71900
3) PARAHGNRDDERGGGVRGGVPADARATLARRVQPHPLARARARVCAGAAVRGE | 48600
4) PSRTSCATPSPTSSTSAVPSARSSTGPRSRSRSRTASTSSTRASAAPSCSCAR | 10500
5) SKNDSASDEEEEGDDLPSAYCTVILNHQKVFKTRTKPKNSKPFFNAGCERFIP | 57400
6) KREDIVRVVNGIFCCYILTFSLFFLFFLVYPSLCFLCLFPLCGVLSFFYLYFP | 20900
7) RYNHLFDETLVAICVLLGRIGGRFIVDDFEVMWCHNLFRTKVVKAIVVFALAY | 39600
8) MNQTSCFFPPFFLFSFFFFLFFFPFPHSSSLPSFFFSFPSISPLFTSFSVSSL | 35200
9) FLTAIPAVPFAGGLSFNILLLFHHSLPFAGFLAHGFYRIIFPITLFFLPIFML | 52900
10) PDELVKSASRLEIDDPSPVTADGAKKSKNQLKKEQKARQLQLQRSLGPASGAP | < 6570
11) RGINAPLIQIPLYNNDPWIQTTISDDYLLPPGWFDILFPTNFDLLKDIYLTAF | 60600
12) LKNLMATIGLTRKVLFTGRQLEFYLAAVKLLATKDVFVKWTAIAKNFFMIVWV | 55500
13) YFRAEAMKTFFSRNYWQLEVRLYVPTKRKGIFHGKDWRINVLLGMWWVVVHIA | 55100
14) FALFPEDPIILTIFGFFFSIPCFYYIVAKPQYISASRFVLLTYNLTCLYCYNL | 32600
15) TGGAGATRTSKAKADRHVTQAGHRRLRAQAACERCRRRKLKCEPSGASCVACV | 48800
16) RPLSEASRDLALPSVTRVWCDEKDNIFYMQDVNFVTDITKVLLVSVLSTVARC | 47600
17) MTPRAQDSSSDDKEDKKDTDRAAIRAAQNRKAQRLYRQRKEARVRELEATVAK | 78900
18) GAVAADVEDEDADDALEEPAKGKKRKSKVEEDESEAEKPAKKGRGRKSTETNG | 42600
19) SRITSIGVWYLLIQMIWYILFGILYIWFFCQTWESFTVLLVVDYSLRIILCLM | 58100
20) ASQFPWAQIEITWRCLTYLCFDSFLELPQYWMLRQKFLVEHALLAYAARYCLV | 54100

###

Each entry below carries its recorded transcriptional activation domain activity.
system: Saccharomyces cerevisiae; assay: transcriptional activation domain activity (GFP:mCherry ratio, weighted mean of sorted bins, harmonized to initial dataset scale) (arbitrary fluorescence ratio units); higher = stronger transcriptional activation; conditions: beta-estradiol 1 µM; induction time 4 h
Readout Kind: transcriptional activation domain activity

1. MIEMMAFRIALGFVGGLGLDGVWCGFFFPFKFVVFSFLHTLSISLGLDFFFLL | 91700
2. CFKLSLVALWPFGKSIDWNLRSAGCLSTVFNVIWLVLLGWHLCLIHLGLMLLF | 43600
3. GYIVFLSMVMIHTDSRLDHLGKRSVLSEENSKNSWQLLVLFLHQLSTYWLLPK | 57900
4. ETVEEPAPKRGKATRTKAAEPAPVEEAPKPAAKPRGRAAAKKATEPAAEAEVE | 35500
5. LLFTLLWLLFFFFFFLFLLFFFVVLVFVFFVVYFFILLLLFIVVDDEWVLLGL | 45300
6. AWPLHLTLGKIPKSIRYQDYHRACRVLAYFPIIHVKGGIIRPAWWWSHCKKLI | 36300
7. LGVLLLLLLYANVVLLIYHAPTTRKPFDLAFIHAPVRAFMLLPLTILFPYSLF | 57300
8. DPYDWSTYSNLIDEERIFVPEVQSSDHINDKFLTVANVTGEGSEGLIMQWLSC | 133000

###

system: Saccharomyces cerevisiae; experiment: transcriptional activation domain activity (GFP:mCherry ratio, weighted mean of sorted bins, harmonized to initial dataset scale) (arbitrary fluorescence ratio units); higher = stronger transcriptional activation; settings: beta-estradiol 1 µM; induction time 4 h
Assign yes (1) to entries whose transcriptional activation domain activity meets or exceeds 30000; assign no (0) to the rest.

1) APPPPPPPPPPAPPARSGAPPPPPPPPPPPMGGAPPPPPPPMGGPPPPPPPPP | yes (1)
2) WGTTFRDEGSRVRVLMRRLARMMRLGGRTPCQSDHISNVHFSAPADWQSTWGT | yes (1)
3) ADTILITMVGIFDLIACFFTCIVQVLRFKMGISVQEILIWCWFDLLIFSTSTF | yes (1)
4) CFSILFSRFAGPSIYLGMRILIMLLYVTLTLWTPWLFYFWVSILSLCIAPFLF | yes (1)
5) EDAEATPAAAVEAEDDAMVVDSEEPKKKSKKDKKEKKDKKRKAAETTEAETAN | no (0)
6) DNLDLASLDPLEQSPSISMEPVSINETGSAYTTTNTALNDIDIPFSINELNEL | yes (1)

###

tested on: Saccharomyces cerevisiae; assay: transcriptional activation domain activity (GFP:mCherry ratio, weighted mean of sorted bins, harmonized to initial dataset scale) (arbitrary fluorescence ratio units); higher = stronger transcriptional activation; settings: beta-estradiol 1 µM; induction time 4 h
Each entry below carries its recorded transcriptional activation domain activity.
Readout Kind: transcriptional activation domain activity

1) NWYWLASTMYFLYGESVIYYFKHIVLVDKVLLPLATHHRFISFVLYVIGFVFF | 74800
2) MAPFSPFVYFFLFLVHNSWLFCFLLVCFPFFSILVFLSFCPFLSPFTSRFSFL | 56600
3) MISFFCDIPVFSLLVPFLPLSFMFPMSPMFYYFFIYAVGCSIFLSLLFFSYVI | 28100
4) PRFLMYCKLGICQLVILRLFTSTFTIVLEMMGLFCPESMSWRFGHFWAVLFNF | 63600
5) VPRHLFEKSTLKSLFYVGRHLGLTAAFYVFATHIDRIAWELCARFGYGHRIRG | 20700
6) MSAPPEEVASTQSAQPTTEPALIGEPVKRGRGRPKGSKNKAKPSTAATATGEA | 34800
7) EESAEEKQEEEDSADAKKQKTNGDAEEIEEAGENDEEKAEESTSKKKGRPAKN | 25100
8) APTLNYELARKFIENSEDALHNSETMDLLGTLSHGNDFALEYNFDFTLLNEID | 121000
9) IWGSANTLPKYLYFISRYFGLLGQLVVSTNLVPMFCFDYLVWSFGFLFTLILS | 87200
10) MDLFFLLHFFIFIFLWHWLGSCLVWLFLVWLWGVFSFFFYYIFSCVSFFGSAI | 61300
11) MWCTRWVLPFLLLPAPTSPPYFVLIFLLSLVMHARPCIYCIFFLIMLFITSNY | 47000
12) PTQEVLRFCKRELMHKLWNLLMDDDFLHAYMHGIVVCCGDGVLRRLFPRIFTY | 44400
13) SSSEEGEDGKGKDKEKHGFRARAKSFTRRKSDAGSRAPSRTGRKRSDSTATAA | 24500
14) ADANGGGLKAGGRVTIAIVRQAILEATSSPLQVYLKTCPLASKVFLVALLVRC | 58100
15) EYAEWLLQPEQNNGTWVADVLWPAIDLDLEWIALNWNQSSWDLWWPPVWAGSF | 107000
16) PFQFLLLKSLSIQKHSDLIIRGCSHFYVGVLSCILNFFLGSWSAWLKRFWYML | 80300
17) KLFFNLSILTLCAIMTLSVVVAFLFVTGCDPFYGYRGILFGFRILLTDIFSNM | 31400
18) YLKELTRCAKLPYSTRAMKNLNNVAITCACTLLVSVPHFNFRGDLLKIIVAKV | 39500
19) HQLYTDWLYLWWIAYTNKMHGRIYIILKESLKNLPIFGWGAQFYNFIFLCRNW | 56400
20) FAALRRGLLLIMLFALWDVRLLSELSFTNFVFPPAMFRVIAAQSPSLRAVKVS | 45300
21) SCLAVITWDVLNFLIVDCHIIFYRKFNWRVLVFIVARLSPYCFFLSLSISLTS | 60900
22) EVYFGLVNRRFRELLLVHERCFDLKVPNYRLMSILLAYLLRHTMVTPKVKYPE | 29700
23) EEEAEPKPAASAPAVAPAADEEGDDQGGDDAAKKKKKKKKGKKDEDAEPAPAA | 35300
24) EDEQPAAPADGRKKTVTKGADKAGLGGTPVRKNATTAGRGRKPATAKKGASQP | 32300
25) MGCKLIILFSSAMLFLFFSVLFLLLPLFFLSPTTCFLSFWLRLWLLLMVHWGR | 47600
26) MGLLCFVFVLHSVFFIFNALSFLPWFVFLKIKFIFLCLSSFGRVFSSFIYMIF | 53000
27) EEEAPEDNSGPRQGAKPAKRAHARARAPKCSGPTNAKVNGKGRARRSGRPAKK | 24900
28) SSEESSSEDDDGDVKMADAKPAANGIYIYLSSINRLINPLQFQVSVKPTRMSL | 47200
